Tested on: DeltatarO mutant
measurement description: S. aureus survival, RN4220 and DeltatarO strains – OD600, teichoic acid synthesis inhibitors, primary screen (AID 463173)
applied conditions: S. aureus RN4220 wild type/DeltatarO growth, OD600, 18 h, hits give low values, screened at 18.75 µg/mL (by protocol)
In all, about 52,000 compounds went through this assay and about 4,300 (8.3%) were called active. Many of the other results were omitted from the sample, so actives are more common in it than they were.
Would you kindly list survival for each of these compounds?
Give bare numbers, in %.

// below: answered compounds
COC(=O)c1ccccc1NC(=O)NCCc1c(C)nn(C)c1C	86
COc1ccccc1C(=O)Nc1ccc(OCc2cc(=O)n3ccc(C)cc3n2)cc1	89
Cc1cccn2c(=O)cc(COc3cccc(NC(=O)c4ccccc4F)c3)nc12	-5
Cc1ccccc1C(=O)Nc1ccc(OCc2cc(=O)n3cccc(C)c3n2)cc1	88
COc1ccc(-c2n[nH]c3c2C(c2ccc(Cl)cc2Cl)NC3=O)cc1 (stereo unspecified)	-12
CCN1CCN(C(C)C(=O)NCc2ccc(OC)cc2)CC1 (stereo unspecified)	85
CCOC(=O)c1ccc(CN(Cc2ccc(F)cc2)S(=O)(=O)c2ccc(F)c(C(=O)Nc3ccc(Cl)cc3F)c2)cc1	79
CC(=O)Nc1ccc(S(=O)(=O)NCCc2csc3nc(-c4ccc(Cl)cc4)nn23)cc1	70
Cc1ccccc1C(=O)Nc1cccc(OCc2cc(=O)n3cccc(C)c3n2)c1	77
COc1ccc(Cn2c(C(=O)O)c(CNC3CCC(C)CC3)c3ccc(C)cc32)cc1 (stereo unspecified)	115

Provide the reported survival of each entry below, same order.
1. CCc1ccc(C2NC(=O)c3[nH]nc(-c4cccc(OC)c4)c32)cc1 (stereo unspecified)
2. Cc1nn(C)c(C)c1CCNC(=O)Nc1cccc(Cl)c1C
3. COC(=O)C1C(=O)C2=C(CC1C)Nc1ccccc1NC2c1ccc(N(C)C)cc1 (stereo unspecified)
4. Cc1cccc(C(=O)Nc2cccc(OCc3cc(=O)n4cccc(C)c4n3)c2)c1
5. Cc1cccn2c(=O)cc(COc3ccc(NC(=O)c4cccc(F)c4)cc3)nc12
6. COc1cc(C(=O)Nc2ccc(OCc3cc(=O)n4ccc(C)cc4n3)cc2)cc(OC)c1OC
7. Cc1cccc(C(=O)Nc2ccc(OCc3cc(=O)n4ccc(C)cc4n3)cc2)c1

Response:
1: 54; 2: 67; 3: 79; 4: 92; 5: 17; 6: 8; 7: 81

----------
System: DeltatarO mutant
measurement description: S. aureus survival, RN4220 and DeltatarO strains – OD600, teichoic acid synthesis inhibitors, primary screen (AID 463173)
applied conditions: S. aureus RN4220 wild type/DeltatarO growth, OD600, 18 h, screened at 18.75 µg/mL (by protocol)
Hit rate of the full screen: of about 52,000 compounds, about 4,300 (8.3%) were called active. Rule as the data show it: active = survival mostly below about 52% (no sharp cut-off); inactive = mostly above about 56%. What follows is part of a selection rich in actives, with near analogues and random picks from the rest.
// allowed return values: True for active, False for inactive

Completed entries (count: 3):
O=C(CSc1oc(-c2ccccc2)nc1S(=O)(=O)c1ccc(Cl)cc1)Nc1ccc(F)cc1	False
N#Cc1c(-n2ncnc2-c2ccccc2Cl)sc2c1CCCCC2	True
CC(NC(=O)C1CCN(C(=O)c2ccc(-n3ccc4ccccc43)s2)CC1)c1ccccc1 (stereo unspecified)	False

Request: State the result this test recorded for "COc1cccc(-c2ncnn2-c2sc3c(c2C#N)CCCCC3)c1OC" .
Response: False

Request: State the result this test recorded for "O=C(CSc1oc(-c2ccccc2)nc1S(=O)(=O)c1ccc(Br)cc1)c1ccccc1" .
Response: False

Request: Dear all, I need the recorded test outcome for "Cc1ccc(-c2nc(S(=O)(=O)c3ccc(C)cc3)c(SCC(=O)NC3CCCCC3)o2)cc1" , thank you.
Response: False

Request: Could you please tell me the result logged for "Cc1ccccc1-c1ncnn1-c1sc2c(c1C#N)CCCCC2" in this assay?
Response: False

Request: Just curious, what result did "N#Cc1c(NC(=O)c2cccs2)sc2c1CCCCC2" get here?
Response: False

Request: Given NCCSC1CC(=O)N(c2ccc(Cl)cc2)C1=O (stereo unspecified) , state the outcome it received in this test.
Response: False

Request: Could you kindly confirm the outcome this assay logged for "COc1ccccc1-n1c(SCC(=O)Nc2ccc(C)cc2)nc(O)cc1=O" ?
Response: False

Request: Field: outcome | Entry: "COc1ccccc1-c1ncnn1-c1sc2c(c1C#N)CCCCC2"
Response: True

----------
System: DeltatarO mutant
measurement description: S. aureus survival, RN4220 and DeltatarO strains – OD600, teichoic acid synthesis inhibitors, primary screen (AID 463173)
applied conditions: S. aureus RN4220 wild type/DeltatarO growth, OD600, 18 h, hits give low values, screened at 18.75 µg/mL (by protocol)
The whole screen tested about 52,000 compounds, of which about 4,300 (8.3%) were called active. The entries come from a sample that favours actives as a whole.
quantity measured: survival (%)
Give bare numbers, in %.

// solved cases for survival follow
Cc1ccc2c(CC(=O)Nc3cccc(C(F)(F)F)c3)coc2c1	1
Cc1ccc(S(=O)(=O)C(CNC(=O)C(=O)NCCc2ccccc2)c2cccs2)cc1 (stereo not given)	107
CC(C)c1ccc2occ(CC(=O)Nc3ccccc3Cl)c2c1	85
Cc1ccc(NC(=O)Cc2coc3ccc(C(C)C)cc23)c(C)c1	88
Cc1cc(NC(=O)NCc2ccc3c(c2)CCN3C(=O)c2ccccc2)ccc1Br	116
COC(=O)c1ccc(NC(=O)Cc2coc3cc(C)ccc23)cc1	91
COc1ccc(CCN2C(=O)N(c3ccc(F)cc3)C(=O)C2CC(=O)Nc2ccccc2)cc1OC (stereo not given)	76
CC(=O)c1ccc(NC(=O)C2CCC(CNS(=O)(=O)c3ccc(Br)s3)CC2)cc1 (stereo not given)	69

Give one value of survival per listed compound.
1. CCCS(=O)(=O)c1c(S(=O)(=O)CCC)c2cc(C(C)(C)C)ccn2c1C(=O)c1ccccc1
2. Cc1ccc(NC(=O)Cc2coc3ccc(C(C)C)cc23)cc1Cl

Response:
1: 118; 2: 37

----------
Test system: DeltatarO mutant
measurement description: S. aureus survival, RN4220 and DeltatarO strains – OD600, teichoic acid synthesis inhibitors, primary screen (AID 463173)
applied conditions: S. aureus RN4220 wild type/DeltatarO growth, OD600, 18 h, screened at 18.75 µg/mL (by protocol)
Hit rate of the full screen: of about 52,000 compounds, about 4,300 (8.3%) were called active. Rule as the data show it: active = survival mostly below about 52% (no sharp cut-off); inactive = mostly above about 56%. Shown is part of a subset that was picked to be rich in actives.
Answer with one of the outcomes given here: active, inactive

CCOc1ccc(CCNC(=O)c2ccc(CS(=O)Cc3cccc(Cl)c3)o2)cc1 (stereo unspecified)	inactive
CCN(C1CCCCC1)S(=O)(=O)c1cccc(S(=O)(=O)N2CCCC2)c1	inactive
Cc1ccccc1CS(=O)(=O)Cc1ccc(C(=O)NCc2ccc(F)cc2)o1	active
COc1ccc(C)cc1NC(=O)CSc1nc2ccccc2nc1N1CCOCC1	inactive
COc1ccc(NC(=O)CN(c2ccccc2OC)S(C)(=O)=O)c(OC)c1	inactive
NCCS(=O)(=O)N1CCCC1	inactive
Cc1cc(C)c(NC(=O)CSc2nc3ccccc3nc2N2CCCCC2)c(C)c1	active
CCc1ccc(CNC(=O)c2ccc(CS(=O)(=O)Cc3ccccc3C)o2)cc1	inactive
O=C(NCCc1ccccc1)c1ccc(CS(=O)Cc2ccc(Cl)cc2)o1 (stereo unspecified)	inactive
CCOC(=O)c1[nH]c(C)c(CCC(=O)Nc2cc(Cl)ccc2C)c1C	inactive

Then there is this compound:
Request: Fill in: this test's call for "CCOc1ccccc1NC(=O)CCc1c(C)nn(-c2ccc(N3CCOCC3)nn2)c1C" is ___
Response: inactive

----------
Tested on: DeltatarO mutant
measurement description: S. aureus survival, RN4220 and DeltatarO strains – OD600, teichoic acid synthesis inhibitors, primary screen (AID 463173)
applied conditions: S. aureus RN4220 wild type/DeltatarO growth, OD600, 18 h, hits give low values, screened at 18.75 µg/mL (by protocol)
Screen size: about 52,000 compounds; about 4,300 (8.3%) were called active. Shown is part of a subset that was picked to be rich in actives.
Please assign no (0) whenever survival is at or above 80%, and yes (1) whenever it is below.

Some solved cases for reference:
COc1ccccc1NC(=O)C1=C(C)Nc2nc(CCCO)nn2C1c1cccc(O)c1 (configuration not stated)	no (0)
Cc1ccc(-c2nnc(SCc3ccccc3C)o2)cc1	yes (1)
COc1ccc(-c2nnc(SCc3cccc(Cl)c3)o2)cc1	yes (1)
N#Cc1ccccc1CSc1nnc(-c2ccccc2)o1	yes (1)

Request: Dear reviewer, please state whether "COc1cccc(-c2ccc3c(N)c(C(=O)c4ccc(Cl)cc4)sc3n2)c1" has survival strictly beneath 80%.
Response: yes (1)

Request: Lab note: confirm whether the reported survival for this compound is below 80%, equality not counting. compound: "Cc1ccc(-c2nnc(SCc3ccccc3C#N)o2)cc1"
Response: yes (1)

Request: I wonder whether "Cc1nc(C)c(CCNS(=O)(=O)c2ccc(F)cc2)s1" has survival below 80%. Can you tell?
Response: no (0)

Request: Hi there! Is survival for CC(=O)Nc1ccc(OCC(O)CN2CCN(c3ccc(C)c(Cl)c3)CC2)cc1 (configuration not stated) below 80%, do you know?
Response: yes (1)

Request: A record lists "Cc1ccc2nc(N(CCCN(C)C)C(=O)c3ccc(Br)s3)sc2c1" . Is its survival below 80%?
Response: yes (1)

Request: Threshold test, survival < 80%: "Oc1ccccc1-c1nnc(SCc2ccccc2)o1"
Response: no (0)

Request: Hello, is survival of the following compound strictly smaller than 80%? "COc1ccc(-c2nnc(SCC#N)o2)cc1"
Response: yes (1)

Request: Dear reviewer, please state whether Cc1cc(OCC(O)CN2CCN(c3cccc(Cl)c3)CC2)ccc1Cl (configuration not stated) has survival strictly beneath 80%.
Response: yes (1)
